molecular target: Tyrosine-protein kinase ABL (Homo sapiens, UniProt P00519+P42684); test: Inhibition of tyrosine kinase v-Abl; type: protein assay
Below, each of the compounds is paired with its reported IC50 value.
Record the value in µM, omitting the unit from your answer.

Observe how each entry below is paired with its result.
| Given Smiles | IC50 [µM] |
| --- | --- |
| Cc1[nH]c2ncnc(Nc3cccc(Br)c3)c2c1C | 2.3 |
| Cc1cccc(Nc2ncnc3[nH]c(C)c(C)c23)c1 | 5.3 |
| Clc1cccc(Nc2ncnc3[nH]c4ccccc4c23)c1 | 30 |
| Cc1[nH]c2ncnc(Nc3cccc(F)c3)c2c1C | 99 |

Continue with the next compound.
Qu. Could you tell me which IC50 is on file for Cc1[nH]c2ncnc(Nc3cccc(Cl)c3)c2c1C ?
Ans. 40.5

---

Quick reference: IC50 of the listed items.
molecular target: Epidermal growth factor receptor (Homo sapiens); assay: Inhibition of EGF-stimulated tyrosine phosphorylation in A431 cells expressing EGF-R
Field: numeric (µM). Do not append units.

Before answering, review these 4 worked examples.
| Given Smiles | IC50 / µM |
| --- | --- |
| Cc1c(-c2ccccc2)[nH]c2ncnc(Nc3cccc(Cl)c3)c12 | 6 |
| Cc1[nH]c2ncnc(Nc3cccc(Cl)c3)c2c1-c1ccccc1 | 6 |
| Brc1cccc(Nc2ncnc3[nH]c4c(c23)CCCC4)c1 | 0.4 |
| Clc1cccc(Nc2ncnc3[nH]c4ccccc4c23)c1 | 0.12 |

Qu. Any idea what IC50 was measured for Cc1[nH]c2ncnc(Nc3cccc(Br)c3)c2c1C ?
Ans. 1.5

---

tested on: Balb/MK; assay: Inhibition of proliferation of EGF-dependent BALB/MK cells; type: functional, cell-based; conditions: Mus musculus
pIC50: −log10 of the molar value.
Entries annotated with measured pIC50

| Given Smiles | pIC50 |
| --- | --- |
| Clc1cccc(Nc2ncnc3[nH]c(-c4ccccc4)c(-c4ccccc4)c23)c1 | < 4.30 |

Qu. Name the reported pIC50 value associated with the compound Cc1cccc(Nc2ncnc3[nH]c4c(c23)CCCC4)c1
Ans. < 4.30

Qu. Would you kindly share the measured pIC50 for Cc1c(-c2ccccc2)[nH]c2ncnc(Nc3cccc(Cl)c3)c12 ?
Ans. < 4.30

---

molecular target: Epidermal growth factor receptor (Homo sapiens, UniProt P00533); assay: In vitro inhibitory activity against epidermal growth factor receptor
Sequence (P00533 whole entry): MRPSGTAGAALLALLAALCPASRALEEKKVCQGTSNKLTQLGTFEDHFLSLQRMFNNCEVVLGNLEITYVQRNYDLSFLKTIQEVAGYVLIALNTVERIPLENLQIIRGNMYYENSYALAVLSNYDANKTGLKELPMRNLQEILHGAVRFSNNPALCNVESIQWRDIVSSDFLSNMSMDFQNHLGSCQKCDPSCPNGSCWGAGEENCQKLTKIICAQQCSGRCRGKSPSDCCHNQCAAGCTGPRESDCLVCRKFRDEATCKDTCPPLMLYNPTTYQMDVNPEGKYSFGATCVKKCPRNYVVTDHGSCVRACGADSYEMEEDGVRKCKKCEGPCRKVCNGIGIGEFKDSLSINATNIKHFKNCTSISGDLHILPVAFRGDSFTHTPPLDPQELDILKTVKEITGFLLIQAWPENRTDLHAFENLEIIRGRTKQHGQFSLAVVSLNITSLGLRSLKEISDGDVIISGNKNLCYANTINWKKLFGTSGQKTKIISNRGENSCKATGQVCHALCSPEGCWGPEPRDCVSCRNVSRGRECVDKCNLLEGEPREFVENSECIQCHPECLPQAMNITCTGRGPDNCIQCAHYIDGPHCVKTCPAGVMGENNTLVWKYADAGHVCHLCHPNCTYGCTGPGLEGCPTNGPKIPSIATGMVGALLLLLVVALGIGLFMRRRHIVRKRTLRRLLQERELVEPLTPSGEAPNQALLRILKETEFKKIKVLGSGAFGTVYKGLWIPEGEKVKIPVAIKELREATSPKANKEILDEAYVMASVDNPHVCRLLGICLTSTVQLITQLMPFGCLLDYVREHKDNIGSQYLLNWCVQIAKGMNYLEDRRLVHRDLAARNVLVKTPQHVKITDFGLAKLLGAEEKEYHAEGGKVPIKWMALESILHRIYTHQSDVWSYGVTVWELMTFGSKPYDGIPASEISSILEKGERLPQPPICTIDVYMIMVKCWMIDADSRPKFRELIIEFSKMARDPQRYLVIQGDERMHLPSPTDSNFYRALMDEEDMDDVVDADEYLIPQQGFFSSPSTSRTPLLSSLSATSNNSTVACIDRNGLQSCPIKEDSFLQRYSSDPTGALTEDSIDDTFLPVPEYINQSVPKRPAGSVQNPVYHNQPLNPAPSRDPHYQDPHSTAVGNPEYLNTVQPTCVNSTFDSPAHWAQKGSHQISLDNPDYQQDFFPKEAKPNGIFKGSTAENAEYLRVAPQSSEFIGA
Endpoint Label: IC50

Please review the following examples before continuing.
| Given Smiles | Assay Target | Endpoint Label | Result |
| --- | --- | --- | --- |
| Cc1[nH]c2ncnc(Nc3ccc(Cl)cc3)c2c1C | Epidermal growth factor receptor (Homo sapiens, UniProt P00533) | IC50 | > 50 µM |
| CCc1ccc(Nc2ncnc3[nH]c4c(c23)CCCC4)cc1 | Epidermal growth factor receptor (Homo sapiens, UniProt P00533) | IC50 | > 50 µM |

Read the next record carefully.
Qu. // lookup IC50 for CCc1ccccc1Nc1ncnc2[nH]c(C)c(C)c12
Ans. > 100 µM

---

molecular target: UniProtKB P00533; assay: Inhibition of EGF-stimulated tyrosine phosphorylation in A431 cells expressing EGF-R
pIC50: −log10 of the molar value.
Recorded pIC50, one value per entry.

Below: 2 compounds and their reported pIC50.
| Given Smiles | Assay Target | pIC50 |
| --- | --- | --- |
| Cc1cccc(Nc2ncnc3[nH]c(C)c(C)c23)c1 | UniProtKB P00533 | < 4.00 |
| Cc1[nH]c2ncnc(Nc3cccc(F)c3)c2c1C | UniProtKB P00533 | < 4.00 |

With those in mind, consider the next compound.
Qu. What does the data say about its pIC50? Entry: Cc1cccc(Nc2ncnc3[nH]c4c(c23)CCCC4)c1
Ans. < 4.00
